# Protocol notes: Unbound fraction in hepatocytes (BRAINstorm)
# Format: in vitro ADME
# Setup conditions: read-out: fu, hep (unbound fraction in hepatocytes)
Measured parameter: fraction unbound
Reply with just the number.

{"columns": ["Compound", "fraction unbound"],
 "data": [
  ["O=c1[nH]c(-c2cccnc2)nc2[nH]ncc12", 0.95]
]}

## Task Request the reported fraction unbound associated with O=C(Nc1nncs1)c1cccnc1 [TGN-020, 2-(nicotinamide)-1,3,4-thiadiazole]
## Result 0.92

* * *

# Protocol notes: Unbound fraction in liver (BRAINstorm)
# Assay type: in vitro ADME
Measured parameter: fraction unbound

## Task Request the reported fraction unbound associated with O=C(Nc1cc(C(F)(F)F)cc(C(F)(F)F)c1)c1cc(Cl)ccc1O
## Result < 0.01
